Source listed as ChEMBL document CHEMBL1143997.

- Species on record: Rattus norvegicus
- METHOD: Ratio of Ki for SERT to Ki for DAT in rat brain
- Type: tissue-based
ASSAY METRIC: Ratio Ki

INSERT INTO measurements (smiles_repr, obs_value) VALUES
  ('O[C@H](CN[C@H]1CC[C@@H](C(c2ccccc2)c2ccccc2)NC1)Cc1ccccc1', 103),
  ('O[C@H](Cc1ccccc1)CN1CCN2C[C@@H]1CC[C@H]2C(c1ccccc1)c1ccccc1', 135),
  ('O[C@H](CN1CCN2C[C@@H]1CC[C@H]2C(c1ccccc1)c1ccccc1)c1ccccc1', 35.7),
  ('O[C@@H](Cc1ccccc1)CN1CCN2C[C@@H]1CC[C@H]2C(c1ccccc1)c1ccccc1', 615),
  ('O[C@@H](CN[C@H]1CC[C@@H](C(c2ccccc2)c2ccccc2)NC1)c1ccc(F)cc1', 12.2),
  ('O[C@@H](CN1CCN2C[C@@H]1CC[C@H]2C(c1ccccc1)c1ccccc1)c1ccc(F)cc1', 111),
  ('O[C@H](CCN1CCN2C[C@@H]1CC[C@H]2C(c1ccccc1)c1ccccc1)c1ccc(F)cc1', 284),
  ('O[C@@H](CN1CCN2C[C@@H]1CC[C@H]2C(c1ccccc1)c1ccccc1)c1ccccc1', 63.2),
  ('O[C@H](CN1CCN2C[C@@H]1CC[C@H]2C(c1ccccc1)c1ccccc1)c1ccc(F)cc1', 45.9),
  ('O[C@@H](CCN1CCN2C[C@@H]1CC[C@H]2C(c1ccccc1)c1ccccc1)c1ccc(F)cc1', 172);

====

- Species on record: Rattus norvegicus
- METHOD: Ratio of Ki for NET to Ki for DAT in rat brain
- Type: tissue-based
just bin them by Ratio Ki: L: < 6; M: ≥ 6 and < 9; H: ≥ 9

INSERT INTO results (smiles_repr, label_value) VALUES
  ('O[C@@H](Cc1ccccc1)CN1CCN2C[C@@H]1CC[C@H]2C(c1ccccc1)c1ccccc1', 'H'),
  ('O[C@@H](CN1CCN2C[C@@H]1CC[C@H]2C(c1ccccc1)c1ccccc1)c1ccccc1', 'L'),
  ('O[C@H](CN1CCN2C[C@@H]1CC[C@H]2C(c1ccccc1)c1ccccc1)c1ccc(F)cc1', 'L'),
  ('O[C@H](CN1CCN2C[C@@H]1CC[C@H]2C(c1ccccc1)c1ccccc1)c1ccccc1', 'M'),
  ('O[C@@H](CN1CCN2C[C@@H]1CC[C@H]2C(c1ccccc1)c1ccccc1)c1ccc(F)cc1', 'L'),
  ('O[C@@H](CCN1CCN2C[C@@H]1CC[C@H]2C(c1ccccc1)c1ccccc1)c1ccc(F)cc1', 'H');

====

- TESTED ON: Norepinephrine transporter (Rattus norvegicus)
- Sequence (Q9WTR4 whole entry): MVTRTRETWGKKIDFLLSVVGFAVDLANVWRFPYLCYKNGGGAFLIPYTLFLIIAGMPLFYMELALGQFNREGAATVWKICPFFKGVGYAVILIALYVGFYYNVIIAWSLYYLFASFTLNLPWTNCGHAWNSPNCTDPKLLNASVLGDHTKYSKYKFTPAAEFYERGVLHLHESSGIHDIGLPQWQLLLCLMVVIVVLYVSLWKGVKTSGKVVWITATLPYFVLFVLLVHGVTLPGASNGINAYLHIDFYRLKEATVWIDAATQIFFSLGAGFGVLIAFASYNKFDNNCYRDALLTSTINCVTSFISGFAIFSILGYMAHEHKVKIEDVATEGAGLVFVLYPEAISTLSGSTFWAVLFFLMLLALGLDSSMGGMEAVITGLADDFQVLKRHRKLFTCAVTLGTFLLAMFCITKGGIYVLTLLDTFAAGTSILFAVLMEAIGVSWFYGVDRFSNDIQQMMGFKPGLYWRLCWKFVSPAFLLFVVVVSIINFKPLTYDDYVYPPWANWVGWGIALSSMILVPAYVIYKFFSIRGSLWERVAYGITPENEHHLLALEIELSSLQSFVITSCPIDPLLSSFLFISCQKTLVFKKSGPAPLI
- METHOD: Inhibition of [3H]NE uptake in NET in rat cerebral cortex
pKi: −log10 of the molar value.
ASSAY METRIC: pKi

INSERT INTO assay_data (smiles_repr, assay_metric, obs_value) VALUES
  ('O[C@H](CN1CCN2C[C@@H]1CC[C@H]2C(c1ccccc1)c1ccccc1)c1ccc(F)cc1', 'pKi', 6.14),
  ('O[C@H](Cc1ccccc1)CN1CCN2C[C@@H]1CC[C@H]2C(c1ccccc1)c1ccccc1', 'pKi', 6.14),
  ('O[C@@H](Cc1ccccc1)CN1CCN2C[C@@H]1CC[C@H]2C(c1ccccc1)c1ccccc1', 'pKi', 6.59),
  ('O[C@@H](CN1CCN2C[C@@H]1CC[C@H]2C(c1ccccc1)c1ccccc1)c1ccc(F)cc1', 'pKi', 6.50),
  ('O[C@@H](CCN1CCN2C[C@@H]1CC[C@H]2C(c1ccccc1)c1ccccc1)c1ccc(F)cc1', 'pKi', 6.38),
  ('O[C@H](CN[C@H]1CC[C@@H](C(c2ccccc2)c2ccccc2)NC1)Cc1ccccc1', 'pKi', 6.64);
